assay: Cell Viability - LYMP2-006 (AID 978); details: LYMP2-006 lymphoblastoid cell viability, qHTS; series mostly up to 92.2 µM;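 note: cells exposed to compound for 24 hours; nearly all actives have a fitted effect of over 60% in size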
Inconclusive results are not listed. Active and inactive are the calls of the source. Calls come from the whole dose curve; as a rule, active = well fitted cell-killing curve with a large enough effect; inconclusive = small, poorly fitted or top-dose-only effect; inactive = flat fitted curve, though single readings scatter.
Choose one outcome from this list and give only that: T (active), F (inactive)

What is the recorded call for this compound in the test? `O=C(O)C(Cl)(Cl)Cl` F

What is the recorded call for this compound in the test? `NNC(N)=O` F

What is the recorded call for this compound in the test? `CC(C)CCON=O` F

What is the recorded call for this compound in the test? COc1ccc2c(c1OC)C(=O)OC2C1c2cc3c(cc2CCN1C)OCO3 (stereo not drawn) F

What is the recorded call for this compound in the test? `S=C=S` F

What is the recorded call for this compound in the test? `O=CC=O` F

What is the recorded call for this compound in the test? `CCCCCCCCOC(=O)c1ccccc1C(=O)OCCCCCCCC` F

What is the recorded call for this compound in the test? `CCCCCl` F

What is the recorded call for this compound in the test? `ClC(Cl)(Cl)Cl` F

What is the recorded call for this compound in the test? `O=C1CCO1` F

What is the recorded call for this compound in the test? `C[C@]12CCC(=O)C[C@@H]1CC[C@@H]1[C@@H]2CC[C@]2(C)[C@@H](O)CC[C@@H]12` F

What is the recorded call for this compound in the test? `[Cl-].[Cl-].[Hg+2]` T

What is the recorded call for this compound in the test? `O=[N+]([O-])c1ccc(F)c([N+](=O)[O-])c1` F

What is the recorded call for this compound in the test? `C=CCN=C=S` F

What is the recorded call for this compound in the test? ClCC1CO1 (stereo not drawn) F

What is the recorded call for this compound in the test? `CCOC(=O)c1ccccc1C(=O)OCC` F

What is the recorded call for this compound in the test? `Oc1cc(Cl)c(Cl)cc1Cl` F

What is the recorded call for this compound in the test? `O=C/C=C/c1ccccc1` F

====

assay: qHTS Assay for Identifying Gametocytocidal Compounds (AID 743244); note: potency is the fitted concentration of half-maximal effect; conditions: P. falciparum 3D7 stage III-V gametocytes, alamarBlue, 72 h
Inconclusive results are not listed. Activity calls are given as the source filed them. Calls come from the whole dose curve; as a rule, active = well fitted curve in the direction sought with a large enough effect; inconclusive = small, poorly fitted or top-dose-only effect, or another doubt; inactive = no such curve, though single readings can be large or run the other way.
assay endpoint: Potency

# query: Potency of entry `CC(C)[C@@]1(NC(=O)[C@@H]2C[C@@H]3c4cccc5[nH]cc(c45)C[C@H]3N(C)C2)O[C@@]2(O)[C@@H]3CCCN3C(=O)[C@H](Cc3ccccc3)N2C1=O` 5010 nM (active)

# query: Potency of entry `CN(N=O)c1ccc(O)c(O)c1` 1000 nM (active)

# query: Potency of entry `Oc1cccc[c]1[Hg][Cl]` 1780 nM (active)

# query: Potency of entry `C[CH2][Hg][S]c1ccccc1C(=O)O` 1410 nM (active)

# query: Potency of entry CC(N)Cc1c[nH]c2ccc(OCc3cccs3)cc12 (configuration not stated) 1410 nM (active)

# query: Potency of entry CN1C2CCC1CC(OC(c1ccccc1)c1ccc(Cl)cc1)C2 (configuration not stated) 17800 nM (active)

# query: Potency of entry CN1CC[C@@]2(C)c3cc(O)ccc3N(C)C12 (some centres not stated) 3160 nM (active)

# query: Potency of entry `O=[N+]([O-])/C=C/c1ccc2c(c1)OCO2` 1580 nM (active)

# query: Potency of entry `O=C1C=C2C=C[C@@H]3C[C@@]2(O1)[C@H]1CCCCN31` 7080 nM (active)

# query: Potency of entry `CNc1ccc2oc(C[C@H]3O[C@@]4(CC[C@H]3C)O[C@H]([C@H](C)C(=O)c3ccc[nH]3)[C@H](C)C[C@H]4C)nc2c1C(=O)O` 2350 nM (active)

# query: Potency of entry `[H+].[H+].[Hg+2].[O-]B([O-])[O-].[c-]1ccccc1` 3550 nM (active)

# query: Potency of entry `CN1CC[C@@]2(C)c3cc(OC(=O)Nc4ccccc4)ccc3N(C)[C@@H]12` 1120 nM (active)
